Task for the reader: assign each of the following molecules its reported Bliss excess.
# Tested on: CAL-120 (Breast Carcinoma);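 note: after 72 h of two-drug dosing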
# experimentalProtocol: Bliss excess, mean over the matrix (fraction); higher = more synergy
Please reply with the number alone, leaving off any unit.

# lookup: Bliss excess of CN(CCO)CC[C@H](CSc1ccccc1)Nc1ccc(S(=O)(=O)NC(=O)c2ccc(N3CCC([C@@H](O)c4ccccc4-c4ccc(Cl)cc4)CC3)cc2)cc1S(=O)(=O)C(F)(F)F [AZD4320] + CN(C)CCCOc1ccc(-c2ccc3ncc4c(c3c2)n(C2CCOCC2)c(=O)n4C)cn1 [AZD0156] (first compound max 1 µM, 7x7, partner max 1 µM)
-0.0225

I have this molecule here, Cc1nc(Nc2ncc(C(=O)Nc3c(C)cccc3Cl)s2)cc(N2CCN(CCO)CC2)n1 [Dasatinib] + CC(=O)Nc1cccc(-n2c(=O)n(C3CC3)c(=O)c3c(Nc4ccc(I)cc4F)n(C)c(=O)c(C)c32)c1 [Trametinib] (first compound max 2 µM, 7x7, partner max 1 µM) , and I need its recorded Bliss excess.
0.032

Entry under review: CC1(C)CCC(CN2CCN(c3ccc(C(=O)NS(=O)(=O)c4ccc(NCC5CCOCC5)c([N+](=O)[O-])c4)c(Oc4cnc5[nH]ccc5c4)c3)CC2)=C(c2ccc(Cl)cc2)C1 [Venetoclax] + COc1cc(Nc2ncc3c(n2)-c2ccc(Cl)cc2C(c2c(F)cccc2OC)=NC3)ccc1C(=O)O [Alisertib] (first compound max 1 µM, 7x7, partner max 10 µM) . Reported Bliss excess?
-0.0182

So what's the measured Bliss excess for this one? Cn1cnc2c(F)c(Nc3ccc(Br)cc3Cl)c(C(=O)NOCCO)cc21 [Selumetinib] + CCN(CCO)CCCOc1ccc2c(Nc3cc(CC(=O)Nc4cccc(F)c4)[nH]n3)ncnc2c1 [AZD2811] (first compound max 10 µM, 7x7, partner max 1 µM)
-0.0065

Suppose we examine the molecule Cc1c2c(nn1C)CSCc1cc(n(C)n1)CSc1cc(c3ccccc3c1)OCCCc1c(C(=O)O)n(C)c3c-2c(Cl)ccc13 [AZD5991] + C=CCn1c(=O)c2cnc(Nc3ccc(N4CCN(C)CC4)cc3)nc2n1-c1cccc(C(C)(C)O)n1 [AZD1775] (first compound max 1 µM, partner max 1 µM) ; what Bliss excess value has been reported?
-0.0143

What value of Bliss excess has been reported for the following molecule? CN(CCO)CC[C@H](CSc1ccccc1)Nc1ccc(S(=O)(=O)NC(=O)c2ccc(N3CCC([C@@H](O)c4ccccc4-c4ccc(Cl)cc4)CC3)cc2)cc1S(=O)(=O)C(F)(F)F [AZD4320] + Cc1cc2ncnn2cc1Nc1ncc2c(n1)n(C1CCOCC1)c(=O)n2C [AZD7648] (first compound max 1 µM, 7x7, partner max 10 µM)
-0.0367
